Target: ErbB2 V777L (Homo sapiens (Human), UniProt P04626, V777L)
Sequence (P04626 23-1255 V777L): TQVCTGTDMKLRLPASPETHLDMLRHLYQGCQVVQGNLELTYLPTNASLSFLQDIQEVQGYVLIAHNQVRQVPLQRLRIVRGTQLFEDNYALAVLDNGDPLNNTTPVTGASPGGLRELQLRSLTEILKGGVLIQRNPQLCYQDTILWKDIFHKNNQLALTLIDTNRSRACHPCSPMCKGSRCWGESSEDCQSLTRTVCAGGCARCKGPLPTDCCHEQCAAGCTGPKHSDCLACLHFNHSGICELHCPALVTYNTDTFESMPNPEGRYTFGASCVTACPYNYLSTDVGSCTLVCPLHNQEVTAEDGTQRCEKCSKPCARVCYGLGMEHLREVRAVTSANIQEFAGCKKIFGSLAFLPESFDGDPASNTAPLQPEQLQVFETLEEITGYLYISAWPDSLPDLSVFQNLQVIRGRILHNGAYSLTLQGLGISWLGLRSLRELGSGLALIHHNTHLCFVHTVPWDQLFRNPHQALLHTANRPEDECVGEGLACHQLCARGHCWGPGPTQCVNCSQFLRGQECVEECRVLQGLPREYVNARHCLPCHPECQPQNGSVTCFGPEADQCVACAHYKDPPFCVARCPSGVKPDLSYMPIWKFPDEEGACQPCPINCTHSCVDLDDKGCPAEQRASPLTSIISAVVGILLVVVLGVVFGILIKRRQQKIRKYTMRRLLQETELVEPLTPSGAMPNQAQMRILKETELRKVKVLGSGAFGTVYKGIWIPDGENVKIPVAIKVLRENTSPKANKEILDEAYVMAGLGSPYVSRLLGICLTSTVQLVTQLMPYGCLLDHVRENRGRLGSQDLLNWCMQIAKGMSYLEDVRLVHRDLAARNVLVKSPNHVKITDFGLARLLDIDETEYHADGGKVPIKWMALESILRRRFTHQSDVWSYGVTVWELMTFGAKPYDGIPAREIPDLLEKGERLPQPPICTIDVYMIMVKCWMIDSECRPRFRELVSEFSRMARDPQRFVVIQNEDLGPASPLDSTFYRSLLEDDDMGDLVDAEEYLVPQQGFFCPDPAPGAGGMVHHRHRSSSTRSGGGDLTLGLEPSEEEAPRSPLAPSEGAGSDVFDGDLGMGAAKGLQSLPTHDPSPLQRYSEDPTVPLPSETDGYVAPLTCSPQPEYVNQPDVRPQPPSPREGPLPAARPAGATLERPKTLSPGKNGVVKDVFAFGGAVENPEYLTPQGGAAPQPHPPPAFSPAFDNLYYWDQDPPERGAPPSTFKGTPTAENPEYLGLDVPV
Test: ErbB enzyme assay (CisBio HTRF-KinEASE-TK), ErbB2 V777L
Assay type: biochemical
Method: In vitro enzyme assays based on CisBio HTRF-KinEASE-TK technology were used to determine compound potencies. […] After another 1 h incubation at ambient temperature, the extent of substrate phosphorylation was determined using a PerkinElmer EnVision multimode plate reader via time-resolved fluorescence dual wavelength detection. The percent of control (POC) was calculated using the ratio of emission at […] to the emission at 620 nm. […]
pIC50: −log10 of the molar value.
measuredAttribute: pIC50

compound=C=CC(=O)N1CCN(c2ncc3ncnc(Nc4ccc(Oc5ccc6c(c5)nnn6C(F)F)c(C)c4)c3n2)CC1 measuredresult="7.00 to 7.30"
compound=C=CC(=O)NC1CCN(c2ccc3ncnc(Nc4ccc(Oc5ccc6c(c5)nnn6C)c(C)c4F)c3n2)CC1 measuredresult="6.30 to 7.00"
compound=C=CC(=O)N[C@@H]1CCCCN(c2ncc3ncnc(Nc4ccc(Oc5ccc6c(c5)nnn6C)c(C)c4F)c3n2)C1 measuredresult="6.30 to 7.00"
compound=C=CC(=O)N1CCN(c2ccc3ncnc(Nc4cc(C)c(Oc5ccc6c(c5)ncn6C(F)F)cc4OC)c3n2)C[C@H]1C measuredresult="6.30 to 7.00"
compound=C=CC(=O)N1CCN(c2ccc3ncnc(Nc4cc(F)c(Oc5ccc6c(c5)nnn6C)c(C)c4F)c3n2)C[C@H]1C measuredresult="7.00 to 7.30"
compound=C=CC(=O)N1CCN(c2ncc3ncnc(Nc4c(F)cc(Oc5ccc6c(c5)nnn6C)c(F)c4F)c3n2)CC1 measuredresult="6.30 to 7.00"
compound="C=CC(=O)NC1CCC(c2ccc3ncnc(Nc4ccc(Oc5ccc6c(c5)nnn6C)c(C)c4)c3n2)CC1 (stereo not shown)" measuredresult="6.30 to 7.00"
